Entries and their measured relative solubility at 20 uM follow.
# CONDITIONS: 20.0 µM
Write the number on its own, no unit after it.

>  <COMPOUND>
CN(CC1COc2ccccc2O1)C(=O)c1cc(=O)[nH]c2cc(F)ccc12 (stereo unspecified)

>  <relative solubility at 20 uM>
0.98

$$$$
>  <COMPOUND>
O=C(CSC1=NCCS1)c1cc(Cl)ccc1Cl

>  <relative solubility at 20 uM>
0.77

$$$$
>  <COMPOUND>
O=C(c1cc(=O)[nH]c2cc(F)ccc12)N1CCN(S(=O)(=O)c2ccccc2)CC1

>  <relative solubility at 20 uM>
0.98

$$$$

Short answer for CC(=O)N1CCN(C(=O)Cc2ccccn2)CC1 : relative solubility at 20 uM was 1

Entry Cc1noc(C)c1COc1ccccc1C(=O)NC(C)c1nnc2ncccn12 (stereo unspecified) — recorded relative solubility at 20 uM = 0.99

The compound identified as Cc1ccc(C)c(S(=O)(=O)N2CCN(C(=O)CCl)CC2)c1 registered its relative solubility at 20 uM at 0.99

For record CN1C(=O)/C(=N\NC(=O)c2ccc3c(c2)OCO3)c2ccccc21 the listed relative solubility at 20 uM is 0.97

Short answer for N#CC(C(=O)Nc1cccc(Cl)c1)C(=O)c1cccs1 (stereo unspecified) : relative solubility at 20 uM was 1

Form: compound = NS(=O)(=O)c1ccc(N2CCC(Nc3ccccc3)CC2)cc1 ; relative solubility at 20 uM = 1

Per the record, O=C(CC(=O)N1CCOCC1)Nc1ccccc1 has relative solubility at 20 uM of 1

Reported relative solubility at 20 uM of Cc1ccncc1NC(=O)Cc1cc(Cl)c2c(c1)OCCO2 : 1
